System: P388 leukemia ip, CD2F1 mice, survival T/C
Method Notes: NCI In Vivo Anticancer Drug Screen. Data for tumor model P388 Leukemia (intraperitoneal) in CD2F1 (CDF1) mice
Condition Notes: endpoint: median survival time; dose: 3.12 mg/kg/injection; schedule: Q01DX009 (ip); vehicle: saline
Inconclusive results and toxic doses are left out. How the source made its calls: active means survival T/C of 150% or more; inactive means T/C below 125% in these data.
Valid outcomes are listed here; reply with one: active, inactive

Molecule	Class
O=C(O)CC(/C=C\C(=O)C(=O)O)=C\O	inactive
O/N=c1/ccn(O)c2ccccc12	active
O=C(Nc1c[nH]c(=O)[nH]c1=O)C(Cl)Cl	inactive

Please share the test call associated with "CCC[CH2][Sn]([CH2]CCC)([O]C(C)=O)[c]1ccccc1" . inactive

Okay, and c1ccc2c(c1)[As]=c1ccccc1=[As]2 (stereo not given) ? inactive

----------
Tested on: P388 leukemia ip, CD2F1 mice, survival T/C
Method Notes: NCI In Vivo Anticancer Drug Screen. Data for tumor model P388 Leukemia (intraperitoneal) in CD2F1 (CDF1) mice
Condition Notes: endpoint: median survival time; dose: 50.0 mg/kg/injection; schedule: Q01DX009 (ip); vehicle: water; higher = longer survival
Inconclusive results and toxic doses are left out.
Endpoint: T/C

These recorded examples may help you get a feel for the data.
Compound	Assay System	T/C
O=C1c2ccccc2C(=O)N1CC[P+](C1CCCCC1)(C1CCCCC1)C1CCCCC1	P388 leukemia ip, CD2F1 mice, survival T/C	86 % of control
CCOC(=O)C(N)CSC(c1ccccc1)(c1ccccc1)c1ccccc1 (stereo not given)	P388 leukemia ip, CD2F1 mice, survival T/C	155 % of control
CC(=O)C1(O)CCCC(OC2CC(N)C(O)C(C)O2)C1 (stereo not given)	P388 leukemia ip, CD2F1 mice, survival T/C	113 % of control
OCC#CCOCC(O)CCl (stereo not given)	P388 leukemia ip, CD2F1 mice, survival T/C	107 % of control

Now turn to the next compound.
Find the recorded T/C belonging to "C1CNCCNCCNCCN1" and report it. 100 % of control

----------
System: P388 leukemia ip, CD2F1 mice, survival T/C
Method Notes: NCI In Vivo Anticancer Drug Screen. Data for tumor model P388 Leukemia (intraperitoneal) in CD2F1 (CDF1) mice
Condition Notes: endpoint: median survival time; dose: 50.0 mg/kg/injection; schedule: Q01DX009 (ip); vehicle: distilled water + Tween-80; higher = longer survival
Toxic doses and inconclusive results are not listed.
Endpoint: T/C

Compound	Value Observed
COc1c(Br)cnc2ccccc12	102 % of control
Cc1nc(CO)cc([N+](=O)[O-])c1C	100 % of control
Cc1cn(CC2C=CC(CS[As](C)C)O2)c(=O)[nH]c1=O (stereo unspecified)	101 % of control
N#CC(Cc1ccccc1)c1ccccc1 (stereo unspecified)	110 % of control
N/C(=N\N=C\c1cc(Br)cc(Br)c1O)N/N=C/c1cc(Br)cc(Br)c1O	90 % of control

I have this compound here, "O=C(O)Cc1cc(Br)c(O)c(Br)c1" , and I need its recorded T/C. 98 % of control

----------
Tested on: P388 leukemia ip, CD2F1 mice, survival T/C
Method Notes: NCI In Vivo Anticancer Drug Screen. Data for tumor model P388 Leukemia (intraperitoneal) in CD2F1 (CDF1) mice
Condition Notes: endpoint: median survival time; dose: 25.0 mg/kg/injection; schedule: Q01DX005 (ip); vehicle: Klucel (hydroxypropylcellulose) (HPC); higher = longer survival
Toxic doses and inconclusive results are not listed.
Endpoint: T/C

Molecule	Value Observed
COc1cccc(/C=N/NC(=S)Nc2cc(C(F)(F)F)cc(C(F)(F)F)c2)c1O	93 % of control
CC(C)=CC(O)C/C(C)=C/CC/C(C)=C/CCC1(C)C(CCCO)/C(=C(/C)C=O)CCC1(C)O (stereo unspecified)	106 % of control
C=C1C(=O)[C@@]23CC1C(O)[C@@H](OC(C)=O)[C@@H]2C1(C)C(OC(C)=O)C[C@@H](OC(C)=O)C(C)(C)[C@@H]1C[C@H]3OC(C)=O (stereo partly specified)	102 % of control

Looking for the measured T/C of COC1=CCC2C(=O)C=CC(=O)C2C1 (stereo unspecified) , can you help? 93 % of control

What do you have for "Cc1cc(=Nc2ccc3c(c2)c(N)cc(C)[n+]3C)nc(N)n1C" ? 104 % of control

Ok, now "CC(C)Cn1c(C(C)C)nc([N+](=O)[O-])c1Sc1ncn[nH]1" 108 % of control

----------
Below: a set of entries, each annotated with reported T/C.
Tested on: P388 leukemia ip, CD2F1 mice, survival T/C
Method Notes: NCI In Vivo Anticancer Drug Screen. Data for tumor model P388 Leukemia (intraperitoneal) in CD2F1 (CDF1) mice
Condition Notes: endpoint: median survival time; dose: 200.0 mg/kg/injection; schedule: Q04DX003 (ip); vehicle: saline with Tween-80; higher = longer survival
Toxic doses and inconclusive results are not listed.

Use these answered entries as a reference point.
Compound	T/C
CS(=N)(=O)c1ccccc1N (stereo not drawn)	99 % of control
Nc1cc2ccc3ncccc3c2c2cccnc12	97 % of control
O=C(NO)c1ccccc1	102 % of control
C/C(=N\NC(=S)NC12CC3CC(CC(C3)C1)C2)c1ccccn1	104 % of control
CCCCCCCCCCCCCCCCCCCC[N+]1(CC)CCOCC1	99 % of control
Nc1ccc([N+](=O)[O-])c(N)n1	107 % of control
Cc1cc(NC(=O)Nc2ccc(Cl)cc2)no1	95 % of control
O=C(OCc1ccccc1)N1Cc2cc3ccccc3nc2C1	103 % of control

Form field: reported T/C of "CCCCCCCCCCCCCCCCOc1ccc(-c2cc(Cl)c3cc(S(=O)(=O)F)ccc3n2)cc1S(=O)(=O)F" 90 % of control

----------
Test system: P388 leukemia ip, CD2F1 mice, survival T/C
Method Notes: NCI In Vivo Anticancer Drug Screen. Data for tumor model P388 Leukemia (intraperitoneal) in CD2F1 (CDF1) mice
Condition Notes: endpoint: median survival time; dose: 25.0 mg/kg/injection; schedule: Q04DX003 (ip); vehicle: saline with Tween-80
Toxic doses and inconclusive results are not listed. The calls were made as follows: active = survival T/C of 150% or more; inactive = T/C below 125% in these data.
# valid calls are active, inactive; nothing else

Examples from the recorded data:
Molecule	Class
C=C(NC(C)=O)C(=O)O	inactive
O=NN(CCCl)C(=O)NC1CC2CCC1C2 (stereo not drawn)	active

For "CC(=N)c1ccc(C)cc1" , what call appears in the results of this test? inactive

----------
Tested on: P388 leukemia ip, CD2F1 mice, survival T/C
Method Notes: NCI In Vivo Anticancer Drug Screen. Data for tumor model P388 Leukemia (intraperitoneal) in CD2F1 (CDF1) mice
Condition Notes: endpoint: median survival time; dose: 200.0 mg/kg/injection; schedule: Q01DX005 (ip); vehicle: Klucel (hydroxypropylcellulose) (HPC); higher = longer survival
Inconclusive results and toxic doses are left out.
Endpoint: T/C

Would you please look over these solved cases?
Compound	T/C
COP(=O)(OC)C1c2ccccc2-c2cccc(C(=O)O)c21 (configuration not stated)	110 % of control
CCc1nc2c(cnn2C)c(=O)n1C	90 % of control
COC(=O)/C=C1\CC(C)C2=C(N1)SCC2=O (configuration not stated)	100 % of control
COC(=O)c1ccccc1S(=O)(=O)N1CCOCC1	98 % of control
N=C(N)c1ccc(N=Nc2cc(N=Nc3ccc(C(=N)N)cc3)c(O)cc2O)cc1	100 % of control
CCOC(=O)C1=C(C)NC(=O)NC1c1cccs1 (configuration not stated)	97 % of control

Any idea what T/C came out for O=C(OC1C2COC(O2)C(OC(=O)c2ccccc2)C1OC(=O)c1ccccc1)c1ccccc1 (configuration not stated) on P388 leukemia ip, CD2F1 mice, survival T/C? 104 % of control

For Cc1cc(O)c(CCC(C)CCCC(C)C)c(O)c1 (configuration not stated) then? 110 % of control

Now the same for "C=Cc1c2ccccc2cc2ccccc12" 100 % of control

Also need "CCc1c2c(cc3c1[nH]c1ccccc13)C(=O)NC2=O" , thanks. 94 % of control

Now the compound CCCCC(NC(=O)OC(C)(C)C)C(=O)O (configuration not stated) 104 % of control

Moving on to "CC1(C)CC(=O)C(C(c2ccccc2O)C2C(=O)CC(C)(C)CC2=O)C(=O)C1" 102 % of control

----------
System: P388 leukemia ip, CD2F1 mice, survival T/C
Method Notes: NCI In Vivo Anticancer Drug Screen. Data for tumor model P388 Leukemia (intraperitoneal) in CD2F1 (CDF1) mice
Condition Notes: endpoint: median survival time; dose: 100.0 mg/kg/injection; schedule: Q01DX009 (ip); vehicle: saline
Inconclusive results and toxic doses are left out. The calls were made as follows: active = survival T/C of 150% or more; inactive = T/C below 125% in these data.
Write down one outcome, taken from T for active, F for inactive

Observe how each entry below is paired with its result.
Molecule	Class
Nc1cc(S(=O)(=O)O)c(Br)c(Br)c1Br	F
COCCOC(=O)Cc1ccc(OC)c(OC)c1	F
O=c1[nH]c2ncccc2c(O)c1-c1ccccc1	F

Which outcome was assigned to CC(OC(=O)c1ccccc1C(=O)O)c1ccccc1 (stereo not given) in this test? F

Now the same for CC1CN(CCC#N)CC(C)O1 (stereo not given) F
